Value source: the supplement of paper PMC9512659

Kindly supply the reported GRinf values for the records listed here.
# Tested on: Mycobacterium tuberculosis Erdman (pMV306hsp+LuxG13)
# Assay remarks: GRinf, normalised growth-rate inhibition at infinite dose (GR value (unitless, negative = killing)); higher = less potent
# Protocol conditions: growth medium: valerate 0.1%; time point: terminal time point
Note: the reply should be a number with no unit written.

Query :: Give GRinf for the following molecule: NNC(=O)c1ccncc1 [isoniazid] + CC(=O)NC[C@H]1CN(c2ccc(N3CCSCC3)c(F)c2)C(=O)O1 [sutezolid]
Result :: -0.0769

Query :: Consider the molecule COc1nc2ccc(Br)cc2cc1[C@@H](c1ccccc1)[C@@](O)(CCN(C)C)c1cccc2ccccc12 [bedaquiline] + CC(=O)NC[C@H]1CN(c2ccc(N3CCSCC3)c(F)c2)C(=O)O1 [sutezolid] and give its recorded GRinf.
Result :: -0.176

Query :: Hello, please tell me recorded GRinf for this one: O=[N+]([O-])c1cn2c(n1)OC[C@@H](OCc1ccc(OC(F)(F)F)cc1)C2 [pretomanid] + CC(=O)NC[C@H]1CN(c2ccc(N3CCSCC3)c(F)c2)C(=O)O1 [sutezolid]
Result :: -0.0339
